For each record, write down the corresponding TNF-alpha fold increase: mean +/− SD.
Tested on: chimpanzee PBMCs
Experiment: Cytokine production by chimpanzee PBMC (ELISA)
Type: cell-based
Settings: PBMC of 4 healthy chimpanzees, 100 μg/ml, 48 h

Incoming: Returns the measured TNF-alpha fold increase: mean +/− SD for the input sequence. Input: GGCCGG [SEQ ID NO:43]
Outgoing: 14.0 +/− 6.6 fold increase

Incoming: # TNF-alpha fold increase: mean +/− SD lookup, item GGGCGG (unmodified DNA) [SEQ ID NO:46]
Outgoing: 14.1 +/− 6.6 fold increase

Incoming: // query TNF-alpha fold increase: mean +/− SD value for entry TTTGTT [SEQ ID NO:23]
Outgoing: 9.0 +/− 5.5 fold increase

Incoming: Entry under review: GGTTGG [SEQ ID NO:41] . Reported TNF-alpha fold increase: mean +/− SD?
Outgoing: 14.1 +/− 7.3 fold increase

Incoming: Fill in: TNF-alpha fold increase: mean +/− SD of GGAAGG (unmodified DNA) [SEQ ID NO:42] is ___
Outgoing: 14.4 +/− 7.1 fold increase

Incoming: // lookup TNF-alpha fold increase: mean +/− SD for GGGTGG [SEQ ID NO:25]
Outgoing: 11.7 +/− 6.7 fold increase

Incoming: What value of measured TNF-alpha fold increase: mean +/− SD is listed for GTGTGT [SEQ ID NO:10] ?
Outgoing: 12.9 +/− 6.4 fold increase

Incoming: Fill in: TNF-alpha fold increase: mean +/− SD of CCGTCC [SEQ ID NO:28] is ___
Outgoing: 10.3 +/− 5.7 fold increase

Incoming: Look up TNF-alpha fold increase: mean +/− SD for this sequence: GGGGGG [SEQ ID NO:44]
Outgoing: 13.8 +/− 6.5 fold increase

Incoming: Please report the recorded TNF-alpha fold increase: mean +/− SD for TCGTTC [SEQ ID NO:37] .
Outgoing: 11.4 +/− 6.4 fold increase

Incoming: Would you mind telling me what TNF-alpha fold increase: mean +/− SD value was observed for GGTGGG [SEQ ID NO:24] ?
Outgoing: 11.9 +/− 7.0 fold increase

Incoming: TNF-alpha fold increase: mean +/− SD for TGTGTG [SEQ ID NO:9] ?
Outgoing: 11.3 +/− 6.9 fold increase

Incoming: I would be grateful if you could share the reported TNF-alpha fold increase: mean +/− SD for CTGTCT [SEQ ID NO:36] .
Outgoing: 12.4 +/− 6.3 fold increase

Incoming: State the recorded TNF-alpha fold increase: mean +/− SD for this entry: AAGTAA [SEQ ID NO:27]
Outgoing: 7.9 +/− 3.9 fold increase

Incoming: # lookup: TNF-alpha fold increase: mean +/− SD of TGGTTG [SEQ ID NO:29]
Outgoing: 12.4 +/− 7.3 fold increase

Incoming: Give its TNF-alpha fold increase: mean +/− SD value. Item: TTGTTT [SEQ ID NO:26]
Outgoing: 7.5 +/− 4.6 fold increase

Incoming: Report TNF-alpha fold increase: mean +/− SD for GGGAGG (unmodified DNA) [SEQ ID NO:45] please.
Outgoing: 14.5 +/− 6.9 fold increase

Incoming: Please give the measured TNF-alpha fold increase: mean +/− SD for this sequence: ATGTAT (unmodified DNA) [SEQ ID NO:30]
Outgoing: 5.9 +/− 3.3 fold increase

----------
Can you tell me IL-12 fold increase: mean +/− SD for the items I'm about to list?
System: rhesus monkey PBMCs
Assay: Cytokine production by rhesus monkey PBMC (ELISA)
Assay type: cell-based
Details: PBMC of 4 healthy rhesus monkeys, 100 μg/ml, 48 h

Incoming: So what does the record say about IL-12 fold increase: mean +/− SD for TGGTTG [SEQ ID NO:29] ?
Outgoing: 11.1 +/− 4.2 fold increase

Incoming: Give the measured IL-12 fold increase: mean +/− SD of GGGCGG (unmodified DNA) [SEQ ID NO:46] .
Outgoing: 11.0 +/− 4.4 fold increase

Incoming: Which value of IL-12 fold increase: mean +/− SD has been reported for CCGTCC [SEQ ID NO:28] in the records?
Outgoing: 10.1 +/− 3.7 fold increase

Incoming: I'd like to know its IL-12 fold increase: mean +/− SD. The sequence in question is CTGTCT [SEQ ID NO:36]
Outgoing: 10.7 +/− 4.6 fold increase

Incoming: Requested read-out: IL-12 fold increase: mean +/− SD. Entry: GGTTGG [SEQ ID NO:41]
Outgoing: 11.5 +/− 5.9 fold increase

Incoming: Quick one: IL-12 fold increase: mean +/− SD of TCGTTC [SEQ ID NO:37] ?
Outgoing: 10.0 +/− 3.8 fold increase

Incoming: Could you tell me which IL-12 fold increase: mean +/− SD is on file for TGTGTG [SEQ ID NO:9] ?
Outgoing: 10.6 +/− 4.2 fold increase

Incoming: What does the record list as IL-12 fold increase: mean +/− SD for GGTGGG [SEQ ID NO:24] ?
Outgoing: 11.2 +/− 4.8 fold increase

Incoming: Tell me the measured IL-12 fold increase: mean +/− SD of GGGGGG [SEQ ID NO:44] , please.
Outgoing: 10.7 +/− 5.6 fold increase

Incoming: Give its IL-12 fold increase: mean +/− SD value. Item: TTTGTT [SEQ ID NO:23]
Outgoing: 6.7 +/− 3.6 fold increase

Incoming: For GTGTGT [SEQ ID NO:10] , what is its reported IL-12 fold increase: mean +/− SD?
Outgoing: 10.7 +/− 4.1 fold increase

Incoming: # lookup: IL-12 fold increase: mean +/− SD of AAGTAA [SEQ ID NO:27]
Outgoing: 7.6 +/− 2.6 fold increase

Incoming: Param item = GGCCGG [SEQ ID NO:43] ; retrieve measured IL-12 fold increase: mean +/− SD.
Outgoing: 11.7 +/− 4.8 fold increase

Incoming: IL-12 fold increase: mean +/− SD for GGGTGG [SEQ ID NO:25] ?
Outgoing: 10.6 +/− 4.7 fold increase

Incoming: I am curious: what IL-12 fold increase: mean +/− SD value has been reported for GGAAGG (unmodified DNA) [SEQ ID NO:42] ?
Outgoing: 11.9 +/− 5.4 fold increase

Incoming: Name the reported IL-12 fold increase: mean +/− SD value associated with the sequence ATGTAT (unmodified DNA) [SEQ ID NO:30]
Outgoing: 6.0 +/− 1.9 fold increase

Incoming: So what does the record say about IL-12 fold increase: mean +/− SD for GGGAGG (unmodified DNA) [SEQ ID NO:45] ?
Outgoing: 11.9 +/− 4.5 fold increase

src = patent US20070213291A1
